Reference source for all entries: paper doi:10.1101/2023.12.06.570349v1

Reported values: Ki for H3R-445 (Homo sapiens, UniProt Q9Y5N1), one per item.

Completed entries (count: 2):
* CN(C)CCCCCc1c[nH]cn1 | 25.1 nM
* NCCCCCc1c[nH]cn1 | 2.51 nM

Ki value, target or system H3R-445 (Homo sapiens, UniProt Q9Y5N1), for "N=C(N)SCCCc1cnc[nH]1" : 1.26 nM

* * *

Recorded Emax by entry
system.name: H3R-413 (Homo sapiens, UniProt Q9Y5N1, DEL274-305)
assay.details: cell-based
Set-up: species or system HEK293-EPAC stably expressing H3R isoform
particulars: HEK293-EPAC stably expressing H3R isoform, read-out: H3R-413 α
Reply with just the number (in %).

• CCCNC1CN(c2ccnc(N)n2)C1 = 80
• NCCCCCc1c[nH]cn1 = 50
• N=C(N)SCCCc1cnc[nH]1 = 80
• CN(C)CCCCCc1c[nH]cn1 = 50

Input "N=C(N)SCCc1cnc[nH]1" . Output Emax: 100

// "c1cc(Cc2cnc[nH]2)ccn1" : Emax value = 100

Looking up "NCCCCc1c[nH]cn1" , I found its Emax recorded as 90

c1ccc(COCCCc2c[nH]cn2)cc1 [proxyfan, 4-[3-(phenylmethoxy)propyl]-3H-imidazole] has a reported Emax of 90

* * *

system.name: H3R-415 (Homo sapiens, UniProt Q9Y5N1)
assay.details: cell-based
Set-up: species or system HEK293-EPAC stably expressing H3R isoform
particulars: HEK293-EPAC stably expressing H3R isoform, read-out: H3R-415 α
measurement.label: Emax (%)
Output spec: scalar in %, unitless text.

Before answering, review these 2 worked examples.
- N=C(NCc1ccc(Cl)cc1)SCCCc1c[nH]cn1 [clobenpropit]: -80
- CCNC(=O)C1CC(F)(c2ccc(CN3CCCC3)c(F)c2)C1 (stereo not shown) [PF-3654746]: -110

Entry under test: C[C@@H]1CCCN1CCc1cc2cc(-c3ccc(C#N)cc3)ccc2o1 [ABT-239] . Its Emax was -50

According to the records, this compound S=C(NC1CCCCC1)N1CCC(c2c[nH]cn2)CC1 [thioperamide] displays Emax of -80

* * *

Catalogue of Emax readings, one per entry.
system.name: H3R-365 (Homo sapiens, UniProt Q9Y5N1)
assay.details: cell-based
Design: species or system HEK293-EPAC stably expressing H3R isoform
particulars: HEK293-EPAC stably expressing H3R isoform, read-out: H3R-365 α
Answer format: number, then unit.

Worked examples follow.
* N=C(N)SCCc1cnc[nH]1 [imetit] | 110%
* CN(C)CCCCCc1c[nH]cn1 [dimethyl-impentamine] | 100%
* c1ccc(COCCCc2c[nH]cn2)cc1 [proxyfan, 4-[3-(phenylmethoxy)propyl]-3H-imidazole] | 100%
* N=C(N)SCCCc1cnc[nH]1 [VUF8328] | 70%
* c1cc(Cc2cnc[nH]2)ccn1 [immethridine, 4-(3H-imidazol-4-ylmethyl)pyridine] | 110%

Emax for NCCCCc1c[nH]cn1 [imbutamine, 4-(3H-imidazol-4-yl)butan-1-amine] is 90%

Reported Emax ( NCCCCCc1c[nH]cn1 [impentamine, 5-(3H-imidazol-4-yl)pentan-1-amine] ) = 100%

Reported Emax for CCCNC1CN(c2ccnc(N)n2)C1 [VUF16839] was 70%

* * *

H3R-415 (Homo sapiens) measurements of pKi, listed per entry.
Recall that pKi is obtained by taking minus log10 of the concentration measured in molar.

Some solved entries appear below for comparison.
• CN(C)CCCCCc1c[nH]cn1 [dimethyl-impentamine] = 7.50
• NCCCCCc1c[nH]cn1 [impentamine, 5-(3H-imidazol-4-yl)pentan-1-amine] = 8.40

Please find the next compound below.
N=C(N)SCCCc1cnc[nH]1 [VUF8328] has a reported pKi of 8.80

* * *

system.name: H3R-415 (Homo sapiens, UniProt Q9Y5N1)
assay.details: cell-based
Parameters: species or system HEK293-EPAC stably expressing H3R isoform
particulars: HEK293-EPAC stably expressing H3R isoform, read-out: H3R-415 α
Emax values for the compounds below.
Give a bare numeral; the unit % is implied.

// below: answered compounds
• N=C(N)SCCc1cnc[nH]1 [imetit] = 70
• CCCNC1CN(c2ccnc(N)n2)C1 [VUF16839] = 50

# next compound below
Documented Emax of c1ccc(COCCCc2c[nH]cn2)cc1 [proxyfan, 4-[3-(phenylmethoxy)propyl]-3H-imidazole] : 70

* * *

system.name: UniProtKB Q9Y5N1
measurement.label: pKi
The meaning of pKi here: minus log10 of the concentration in molar units.

Entry "NCCCCCc1c[nH]cn1" , pKi reported as 8.50

* * *

system.name: H3R-445 (Homo sapiens)
measurement.label: Kd (nM)
Field format: number, assumed nM, no unit text.

For CNCCc1c[nH]cn1 [[3H]NAMH] the molecule record lists Kd as 1.26

* * *

system.name: UniProt:Q9Y5N1
measurement.label: Kd (nM)
Write the answer as a number in nM, unit excluded.

Measured Kd for this entry CNCCc1c[nH]cn1 [[3H]NAMH] on UniProt:Q9Y5N1: 1.26

* * *

system.name: H3R-365 (Homo sapiens, UniProt Q9Y5N1)
measurement.label: Kd (pM)
A number alone suffices; assume pM.

H3R-365 (Homo sapiens, UniProt Q9Y5N1) data for CNCCc1c[nH]cn1 [[3H]NAMH] ; its Kd: 501

* * *

// reported EC50 for each item listed
system.name: H3R-413 (Homo sapiens, UniProt Q9Y5N1, DEL274-305)
assay.details: cell-based
Quick note: give the figure in nM, leave out the unit.

* c1nc(CC2CCNCC2)c[nH]1 [Immepip] | 0.2
* N=C(N)SCCc1cnc[nH]1 [imetit] | 0.316
* CN(C)CCCCCc1c[nH]cn1 [dimethyl-impentamine] | 79.4
* NCCCCCc1c[nH]cn1 [impentamine, 5-(3H-imidazol-4-yl)pentan-1-amine] | 6.31
* CN1CCC(Cc2c[nH]cn2)CC1 [Methimepip] | 0.631

Kindly review the next compound as well.
Just so you know, measured EC50 for c1ccc(COCCCc2c[nH]cn2)cc1 [proxyfan, 4-[3-(phenylmethoxy)propyl]-3H-imidazole] came out at 31.6

* * *

system.name: H3R-453 (Homo sapiens, UniProt Q9Y5N1)
assay.details: cell-based
Parameters: species or system HEK293-EPAC stably expressing H3R isoform
particulars: HEK293-EPAC stably expressing H3R isoform, read-out: H3R-453 α
// assign 1 if Emax falls strictly below 90%, else -1 (ties count as -1)

Worked cases, answers included:
• c1ccc(COCCCc2c[nH]cn2)cc1 [proxyfan, 4-[3-(phenylmethoxy)propyl]-3H-imidazole] = -1
• NCCCCCc1c[nH]cn1 = 1
• NCCCCc1c[nH]cn1 = -1
• N=C(N)SCCc1cnc[nH]1 = -1

Quick check: Emax of "c1cc(Cc2cnc[nH]2)ccn1" under 90%?
-1

* * *

system.name: H3R-415 (Homo sapiens, UniProt Q9Y5N1)
assay.details: cell-based
Set-up: species or system HEK293-EPAC stably expressing H3R isoform
measurement.label: pEC50
Keep it numeric: pEC50 is minus log10 of the concentration in mol/L.

Value of measured pEC50 for the entry c1ccc(COCCCc2c[nH]cn2)cc1 [proxyfan, 4-[3-(phenylmethoxy)propyl]-3H-imidazole] : 7.80

* * *

Reported H3R-373 pEC50 by item:
system.name: H3R-373 (Homo sapiens, UniProt Q9Y5N1, INS445KMKKKTCL)
Parameters: species or system HEK293-EPAC stably expressing H3R isoform
particulars: agonist
Answer with a number only, understood to be in M.

* NCCCCc1c[nH]cn1 | 9.5
* CN(C)CCCCCc1c[nH]cn1 | 7.9
* N=C(N)SCCCc1cnc[nH]1 | 9.0
* c1nc(CC2CCNCC2)c[nH]1 [Immepip] | 10.1
* c1cc(Cc2cnc[nH]2)ccn1 | 10.1

H3R-373 pEC50 recorded for this compound, c1ccc(COCCCc2c[nH]cn2)cc1 [proxyfan, 4-[3-(phenylmethoxy)propyl]-3H-imidazole] , is 8.0

* * *

system.name: H3R-413 (Homo sapiens, UniProt Q9Y5N1, DEL274-305)
assay.details: biochemical
measurement.label: pKd
Note on pKd: it is the negative log10 of concentration, concentration in mol/L.

The measured pKd associated with CNCCc1c[nH]cn1 [[3H]NAMH] reads 8.90

* * *

system.name: H3R-373 (Homo sapiens, UniProt Q9Y5N1, INS445KMKKKTCL)
assay.details: cell-based
Design: species or system HEK293-EPAC stably expressing H3R isoform
particulars: HEK293-EPAC stably expressing H3R isoform, read-out: H3R-373 α
measurement.label: Emax
Answer as a quantity: numeral, then unit.

Worked cases, Emax given:
* c1ccc(COCCCc2c[nH]cn2)cc1 [proxyfan, 4-[3-(phenylmethoxy)propyl]-3H-imidazole] | 80%
* CN(C)CCCCCc1c[nH]cn1 [dimethyl-impentamine] | 70%

# input for lookup
The molecule identified as N=C(N)SCCc1cnc[nH]1 [imetit] registered its Emax at 80%
